For each record, write down the corresponding solubility.
Experiment: Thermodynamic solubility test
Type: physicochemical
Conditions: FeSSIF solution, thermodynamic from solid, FeSSIF pH 5.8, overnight at room temperature, read-out: Solubility, FeSSIF (pH 5.8)
Give the quantity in µg/mL, number only.

Req: I am curious: what solubility value has been reported for CC1CC(COCc2c[nH]nn2)CCN1C(=O)c1cnc(NC2Cc3ccccc3C2)nc1 (stereo not drawn) ?
Resp: 317

Req: # input compound: O=C(c1cnc(NC2Cc3ccccc3C2)nc1)N1CCC(COCc2c[nH]nn2)C(F)C1 (stereo not drawn) ; wanted: its solubility
Resp: 49

Req: Can you look up the measured solubility of O=C(COCCc1cnn[nH]1)N1Cc2cnc(NC3Cc4ccccc4C3)nc2C1 [Control compound 1, reference compound] for me?
Resp: 18.3
